system.tested: human MC4R receptor (human, UniProt P32245 1-332)
Sequence (P32245 whole entry): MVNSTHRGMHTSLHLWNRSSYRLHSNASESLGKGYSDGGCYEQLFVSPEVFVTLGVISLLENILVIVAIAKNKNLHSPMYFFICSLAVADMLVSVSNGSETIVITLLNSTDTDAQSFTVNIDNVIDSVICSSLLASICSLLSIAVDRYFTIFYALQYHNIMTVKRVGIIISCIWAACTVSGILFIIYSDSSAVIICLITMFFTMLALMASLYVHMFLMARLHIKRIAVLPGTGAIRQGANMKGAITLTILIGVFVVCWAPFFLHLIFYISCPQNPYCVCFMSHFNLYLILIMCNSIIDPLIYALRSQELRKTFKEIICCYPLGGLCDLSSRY
assay: cell-based or functional assay
Positions of bridges follow the written chain, without caps; N, C: chain ends. Non-standard residues stand in square brackets, D forms with d. Phe(4-Br) = N[C@@H](Cc1ccc(Br)cc1)C(=O)O; dPhe(4-Br) = N[C@H](Cc1ccc(Br)cc1)C(=O)O
Entries and their MC4R selectivity vs MC3R values follow.
Just the number, please.

Item under review: Ac-RC[dA]R[dY]R[dW]C-NH2 (disulfide 2-8; SMILES CC(=O)N[C@@H](CCCNC(=N)N)C(=O)N[C@H]1CSSC[C@@H](C(N)=O)NC(=O)[C@@H](Cc2c[nH]c3ccccc23)NC(=O)[C@H](CCCNC(=N)N)NC(=O)[C@@H](Cc2ccc(O)cc2)NC(=O)[C@H](CCCNC(=N)N)NC(=O)[C@@H](C)NC1=O) [CTX-1237] . Reported MC4R selectivity vs MC3R?
0.08

Item under review: Ac-RC[dA]P[dPhe(4-Br)]R[dW]C-NH2 (disulfide 2-8; SMILES CC(=O)N[C@@H](CCCNC(=N)N)C(=O)N[C@H]1CSSC[C@@H](C(N)=O)NC(=O)[C@@H](Cc2c[nH]c3ccccc23)NC(=O)[C@H](CCCNC(=N)N)NC(=O)[C@@H](Cc2ccc(Br)cc2)NC(=O)[C@@H]2CCCN2C(=O)[C@@H](C)NC1=O) [CTX-1249] . Reported MC4R selectivity vs MC3R?
0.45

Item under review: Ac-RC[dA]R[Phe(4-Br)]R[dW]C-NH2 (disulfide 2-8) [CTX-1215] . Reported MC4R selectivity vs MC3R?
0.05

Ref: patent US20240391954A1
